Tested on: Staphylococcus sp.
Assay: Antimicrobial activity against Staphylococcus sp. by broth dilution method
Type: functional
Settings: Staphylococcus sp.
Please provide measured MIC90 for the entries that follow.
Express your answer in µg/mL, writing the number without its unit.

Param readout= MIC90; system= Staphylococcus sp.; entry= CC(=O)NC[C@H]1CN(c2ccc(N3CCOCC3)c(F)c2)C(=O)O1 [LINEZOLID] ; returns value.
2

Now consider Cn1nnc(-c2ccc(-c3ccc(N4C[C@H](CO)OC4=O)cc3F)cn2)n1 [TEDIZOLID] and answer again.
0.5

###

System: Haemophilus influenzae
Experiment: Antimicrobial activity against Haemophilus influenzae by broth dilution method
Format: functional
Conditions: Haemophilus influenzae
property.measured: MIC90 (µg/mL)
Express your answer in µg/mL, writing the number without its unit.

Param readout= MIC90; system= Haemophilus influenzae; entry= `C[C@H]1COc2c(N3CCN(C)CC3)c(F)cc3c(=O)c(C(=O)O)cn1c23.C[C@H]1COc2c(N3CCN(C)CC3)c(F)cc3c(=O)c(C(=O)O)cn1c23.O` ; returns value.
0.12

Now consider `CO/N=C(\C(=O)N[C@@H]1C(=O)N2C(C(=O)O)=C(COC(C)=O)CS[C@H]12)c1csc(N)n1` and answer again.
0.5

Now consider `Cn1nnc(-c2ccc(-c3ccc(N4C[C@H](CO)OC4=O)cc3F)cn2)n1` and answer again.
16
